System Name: Polyunsaturated fatty acid 5-lipoxygenase (Rattus norvegicus, UniProt P12527)
Sequence (P12527 whole entry): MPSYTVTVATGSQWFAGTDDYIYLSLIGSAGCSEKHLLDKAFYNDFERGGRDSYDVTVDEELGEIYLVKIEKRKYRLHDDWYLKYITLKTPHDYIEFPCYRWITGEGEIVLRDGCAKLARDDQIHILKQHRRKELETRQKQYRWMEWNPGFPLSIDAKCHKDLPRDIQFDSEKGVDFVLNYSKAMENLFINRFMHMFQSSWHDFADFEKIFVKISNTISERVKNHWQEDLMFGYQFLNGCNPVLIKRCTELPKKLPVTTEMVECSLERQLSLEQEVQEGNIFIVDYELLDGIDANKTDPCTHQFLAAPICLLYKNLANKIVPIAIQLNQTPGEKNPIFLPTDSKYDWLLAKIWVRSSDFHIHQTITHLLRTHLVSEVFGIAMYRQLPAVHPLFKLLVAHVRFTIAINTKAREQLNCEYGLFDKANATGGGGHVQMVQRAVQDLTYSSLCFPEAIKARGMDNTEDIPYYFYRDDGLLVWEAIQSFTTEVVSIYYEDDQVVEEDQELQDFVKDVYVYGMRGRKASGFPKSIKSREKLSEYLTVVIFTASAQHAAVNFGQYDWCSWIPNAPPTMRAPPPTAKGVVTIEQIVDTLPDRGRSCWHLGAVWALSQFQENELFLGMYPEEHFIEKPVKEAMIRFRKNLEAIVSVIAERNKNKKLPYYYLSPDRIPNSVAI
Assay Details: In vitro inhibition of RBL-1 5-lipoxygenase; Value ranges from 4.0-6.4
Assay type: cell-based
Measure: pIC50
Reminder that pIC50 means the negative base-10 logarithm of the concentration expressed in mol/L.

Recorded pIC50 of "Cc1ccc(O)c2nc(Cc3cccnc3)[nH]c12" , please.
5.30

The reported measurements were obtained from ChEMBL document CHEMBL1123560.
